# ASSAY TARGET: T1, human CD3 on the cell surface (Jurkat cells, expanded human T cells, Jurkat-Lucia NFAT cells, human PBMC) (human, UniProt P07766 23-207; P04234 22-171; P09693 23-182)
# T1 construct: whole, on cells; Endogenous CD3 within the TCR-CD3 complex on cells (also zeta chains and TCR); the cell type is named under assay
# T1 sequence (P07766 23-207, chain 1 of 3): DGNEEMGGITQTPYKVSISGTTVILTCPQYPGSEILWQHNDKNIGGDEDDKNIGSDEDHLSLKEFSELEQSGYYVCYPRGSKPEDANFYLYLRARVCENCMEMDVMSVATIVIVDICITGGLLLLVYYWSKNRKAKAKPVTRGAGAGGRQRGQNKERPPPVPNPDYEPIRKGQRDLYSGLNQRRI
# T1 sequence (P04234 22-171, chain 2 of 3): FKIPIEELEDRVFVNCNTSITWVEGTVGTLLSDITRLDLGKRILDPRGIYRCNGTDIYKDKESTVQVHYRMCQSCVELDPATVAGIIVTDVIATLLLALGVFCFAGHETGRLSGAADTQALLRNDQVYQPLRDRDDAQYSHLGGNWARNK
# T1 sequence (P09693 23-182, chain 3 of 3): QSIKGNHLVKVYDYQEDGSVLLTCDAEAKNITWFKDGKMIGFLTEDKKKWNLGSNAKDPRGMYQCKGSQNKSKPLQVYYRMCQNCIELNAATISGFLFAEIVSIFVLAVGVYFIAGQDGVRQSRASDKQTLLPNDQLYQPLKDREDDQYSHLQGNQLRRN
# PROTOCOL TEXT: FACS, expanded human T cells
READOUT: max_MFI (MFI)
Express the result in MFI but write the number alone.

Query 8-18.1-H1-L2 humanized antibody (antibody, human IgG1, kappa, V domains shown) VH: EVQLVQSGAEVKKPGASVKVSCKASGYTFTMNTMHWVRQAPGQRLEWMGYINPYSGYTKYNQIFKDRVTITADKSASTAYMELSSLRSEDTAVYYCLRGGEGVWGQGTTVTVSS VL: DVVMTQSPLSLPVTLGQPASISCKSSQSLLDSDGKTYLNWLQQRPGQSPRRLIYLVSELGSGVPDRFSGSGSGTDFTLKISRVEAEDVGVYYCWQGTHFPRTFGGGTKVEIKR yields max_MFI of 11500

Measured max_MFI, 5-7.13-H1a-L2 humanized antibody (antibody, human IgG1, kappa, V domains shown) VH: EVQLVQSGAEVKKPGASVKVSCKASGYTFTSYWVHWVRQAPGQRLEWMGNINPSDGVTNYNEKFKSRVTITVDKSASTAYMELSSLRSEDTAVYYCTRDAYGQYYFDNWGQGTTVTVSS VL: DIVMTQTPLSLPVTPGEPASISCKSSQSLLNSRTRKNYLAWYLQKPGQSPQLLIYWASVRDSGVPDRFSGSGSGTDFTLKISRVEAEDVGVYYCIQSYYLRTFGGGTKVEIKR : 35900

Then this binder:
Query 6-35.22-H1-L1 humanized antibody (antibody, human IgG1, kappa, V domains shown) VH: EVQLVESGGGVVQPGRSLRLSCAASGFTFTDYYMSWVRQAPGKGLEWVAMSRNKAKGHTIEYSSSVKGRFTISRDNSKNTLYLQMNSLRAEDTAVYYCARDTYESYDGYFDVWGQGTTVTVSS VL: DIVMTQSPDSLAVSLGERATINCKSSQSLFNSRSRKNYLAWYQQKPGQTPKLLIYWASIRESGVPDRFSGSGSGTDFTLTISSLQAEDVAVYYCKQSYYLYTFGQGTKLEIKR yields max_MFI of 11300

The measured values listed here are drawn from patent US20250136687A1.
